Experiment: PAMPA (parallel artificial membrane permeability assay)
Type: in vitro ADME
Conditions: PAMPA, pH 6.5
Protocol: 4 μL of a phospholipid-organic solvent solution composed of 10% (w/v) of egg lecithin, 0.5% (w/v) of cholesterol and dodecane (all purchased from Fluka) was added to a Millipore 96-well membrane filter (hydrophobic PVDF (polyvinylidene difluoride), pore size 0.45 microm) (purchased from Millipore Japan) to make an artificial phospholipid membrane. […]
Starred links: 1 amine or outer side, 2 acyl side, 3 side chain; linkers in the order of their positions; H or OH if unused. Positions of bridges follow the written chain, without caps; N, C: chain ends. Non-standard residues stand in square brackets, D forms with d. Residues, ends and D or L forms follow the SMILES beside them. *: point of attachment. NMeF = CN[C@@H](Cc1ccccc1)C(=O)O; NMeI = CC[C@H](C)[C@H](NC)C(=O)O; NMeβAla = CN(CCC(=O)[*:2])[*:1]; NMeL = CN[C@@H](CC(C)C)C(=O)O; NMeV = CN[C@H](C(=O)O)C(C)C; NMeA = CN[C@@H](C)C(=O)O; Piperidide = C1CCN(*)CC1; Sar = CNCC(=O)O
Kindly supply the reported Papp at 18 hours, 50 µM values for the records listed here.
Please reply with the bare figure in ×10⁻⁶ cm/s and do not write the unit itself.

Value of measured Papp at 18 hours, 50 µM for the entry CC[C@H](C)[C@H](NC(=O)[C@@H]1CC(=O)N[C@@H](C)C(=O)N[C@@H](CC(C)C)C(=O)N2CCC[C@H]2C(=O)N[C@@H](C)C(=O)N[C@@H](CC(C)C)C(=O)N(C)CC(=O)N[C@@H]([C@@H](C)O)C(=O)N[C@@H](Cc2ccccc2)C(=O)N[C@@H](CC(C)C)C(=O)N(C)[C@@H](Cc2ccccc2)C(=O)N[C@@H](C(C)C)C(=O)N1)C(=O)N1CCCCC1 [DP-40] (ALPAL[Sar]TFL[NMeF]VDI-Piperidide; lactam N-12) : 5.8

Entry CC(C)C[C@@H]1NC(=O)[C@@H]2CCCN2C(=O)[C@H](Cc2ccccc2)N(C)C(=O)[C@H](C)N(C)C(=O)[C@H]([C@@H](C)O)NC(=O)[C@@H](C(C)C)NC(=O)C[C@@H](C(=O)N2CCCCC2)NC(=O)[C@H](CC(C)C)N(C)C(=O)[C@H](C)N(C)C(=O)[C@H](Cc2ccccc2)NC(=O)[C@H](C(C)C)N(C)C1=O [DP-146] ([dV]T[NMeA][NMeF]PL[NMeV]F[NMeA][NMeL]D-Piperidide; lactam N-11) — recorded Papp at 18 hours, 50 µM = 26

Notebook: CC[C@H](C)[C@H]1C(=O)N[C@@H](C)C(=O)N(C)[C@@H](Cc2ccccc2)C(=O)N[C@@H]([C@@H](C)O)C(=O)N(C)CC(=O)N(C)[C@@H](Cc2ccccc2)C(=O)N(C)[C@@H](CC(C)C)C(=O)N[C@H](C(=O)N2CCCCC2)CC(=O)N(C)CCC(=O)N[C@@H](CC(C)C)C(=O)N(C)[C@@H](CC(C)C)C(=O)N1C [DP-48] ([NMeβAla]L[NMeL][NMeI]A[NMeF]T[Sar][NMeF][NMeL]D-Piperidide; lactam N-11) , Papp at 18 hours, 50 µM read as 33

FYI, the data here is from patent US9409952B2.
